Test system: RIP1-Tag2 angiogenic islets and tumors
Assay: In vivo homing of phage (pools and individual phage) in RIP1-Tag2 mice
Design: species or system mouse
Conditions: phage-displayed peptide, i.v., FIG. 1D, with ex vivo binding patterns
observed property: homing class of individual phage (angiogenic islets or tumors in vivo)

>>> recorded_measurement("CKAAKNK")
"tumor-selective"
>>> recorded_measurement("CKGAKAR")
"tumor-selective"
>>> recorded_measurement("VGVGEWSV")
"tumor-selective"
